Quick reference: LD50 of the listed items.
Assay: general compatibility (LD50 i.v.) in rats
Conditions: rat, in vivo, iv
Field: numeric (mg/kg). Do not append units.

CC(=O)Nc1c(I)c(C(=O)O)c(I)c(C(=O)NCCO)c1I [Compound 1, ioxithalamic acid, reference compound]    15200

Consider the record given below.
Entry CC(=O)Nc1c(I)c(C(=O)O)c(I)c(C(=O)NCC(C)O)c1I (centres unmarked) [Compound 7] — recorded LD50 = 18200
